Biological target: Gox0644 (Gluconobacter oxydans, UniProt Q5FT75)
Assay: Enzyme activity assay (rate of NAD(P)H decrease at 340 nm), Gox0644
Type: biochemical
Conditions: Tab. 4, Gox0644; cofactor NADPH; 10 mM substrate, pH 7.0, 30 °C
Please note: Specific Activity exactly at 50 U/mg is not satisfied. Only values below 50 U/mg get satisfied.

Query :: Criterion: Specific Activity strictly below 50 U/mg. Is it met by CC(=O)C(=O)c1ccccc1 [1-phenyl-1,2-propanedione] ?
Result :: not satisfied

Query :: Criterion: Specific Activity strictly below 50 U/mg. Is it met by CC(=O)C(C)=O [2,3-butanedione] ?
Result :: not satisfied

Query :: Criterion: Specific Activity strictly below 50 U/mg. Is it met by O=CC=O [glyoxal] ?
Result :: satisfied

Query :: Criterion: Specific Activity strictly below 50 U/mg. Is it met by CCC(=O)C(C)=O [2,3-pentanedione] ?
Result :: not satisfied

---

Target: Gox1615 (Gluconobacter oxydans, UniProt Q5FQJ0)
Experiment: Enzyme activity assay (rate of NAD(P)H decrease at 340 nm), Gox1615
Format: biochemical
Conditions: Tab. 5, Gox1615; cofactor NADPH; 10 mM substrate, pH 7.0, 30 °C
Specific Activity below 4 U/mg gives not satisfied; Specific Activity at or above it gives satisfied.

Check out these entries, answers already filled in.
# compound, category
records = [
    ("CC=CC(C)=O [3-penten-2-one]", "not satisfied"),
    ("O=CC(O)CO (racemic) [DL-glyceraldehyde]", "satisfied"),
    ("O=CCc1ccccc1 [phenylacetaldehyde]", "satisfied"),
    ("CC(=O)C(=O)c1ccccc1 [1-phenyl-1,2-propanedione]", "satisfied"),
    ("CCCCCCCCC=O [Nonal]", "satisfied"),
]

Now, please, on to the next compound.
Query :: Item CCC(=O)C(=O)CC [3,4-hexanedione] with Specific Activity of 4 U/mg or above?
Result :: not satisfied

---

Biological target: Gox1615 (Gluconobacter oxydans, UniProt Q5FQJ0)
Sequence (Q5FQJ0 1-332): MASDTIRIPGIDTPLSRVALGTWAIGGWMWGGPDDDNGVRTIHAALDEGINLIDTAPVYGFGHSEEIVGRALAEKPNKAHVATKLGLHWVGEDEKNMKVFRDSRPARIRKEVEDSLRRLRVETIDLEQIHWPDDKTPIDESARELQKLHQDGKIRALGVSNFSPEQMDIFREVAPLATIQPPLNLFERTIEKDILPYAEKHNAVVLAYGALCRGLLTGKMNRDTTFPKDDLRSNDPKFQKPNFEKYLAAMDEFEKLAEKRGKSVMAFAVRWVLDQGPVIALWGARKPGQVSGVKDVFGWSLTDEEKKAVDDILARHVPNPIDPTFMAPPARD
Assay: Enzyme activity assay (rate of NAD(P)H decrease at 340 nm), Gox1615
Assay type: biochemical
Conditions: Tab. 5, Gox1615; cofactor NADPH; 10 mM substrate, pH 7.0, 30 °C
testReadout: Specific Activity (U/mg)
Numbers only, in U/mg.

Reference set, count: 4
# molecule, Specific Activity, U/mg
rows = [
    ("CC(C)CC=O [isovaleraldehyde]", 12),
    ("CCCCCCCCCCCC=O [dodecanal]", 15.6),
    ("O=CC=O [glyoxal]", 5),
    ("CCCC(=O)C(C)=O [2,3-hexanedione]", 6.5),
]

Query :: Reported Specific Activity, molecule Cc1ccccc1C=O [o-toluylaldehyde] : ____
Result :: 0.8

From: patent EP2119770B1
